Molecular target: T1, human GFRα1 expressed with a C-terminal human Fc tag and a hexahistidine tag (human, UniProt P56159 25-429, limits assumed)
T1 construct: bought protein; also called hGFRα1-hFc-6His; hGFRα1-hFc-6his
T1 sequence (looked up): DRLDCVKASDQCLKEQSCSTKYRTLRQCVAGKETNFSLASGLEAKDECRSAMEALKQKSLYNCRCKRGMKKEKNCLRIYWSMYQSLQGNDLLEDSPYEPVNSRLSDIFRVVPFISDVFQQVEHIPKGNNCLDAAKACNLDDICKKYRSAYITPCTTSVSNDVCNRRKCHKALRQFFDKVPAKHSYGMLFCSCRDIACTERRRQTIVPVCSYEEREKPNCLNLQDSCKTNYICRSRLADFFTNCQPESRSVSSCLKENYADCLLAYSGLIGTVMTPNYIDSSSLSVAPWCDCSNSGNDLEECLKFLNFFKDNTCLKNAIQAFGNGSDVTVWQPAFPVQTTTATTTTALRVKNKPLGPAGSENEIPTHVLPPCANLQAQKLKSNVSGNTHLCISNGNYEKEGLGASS
Test: BLI Octet, antigen on anti-hFc tips, 100 ug/mL Ab
experimental-readout: Bound (nm)
Value expressed in nm; do not type the unit.

Recorded results for 4 binders are shown here.
[[record]]
binder = "H4H2352S (antibody, human IgG4, V domains shown, human IgG4 Fc (H4H); also called H4H2352S-1) VH: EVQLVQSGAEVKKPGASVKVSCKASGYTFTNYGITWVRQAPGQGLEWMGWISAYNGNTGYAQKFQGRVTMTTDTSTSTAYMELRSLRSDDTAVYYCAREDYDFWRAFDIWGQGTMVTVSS VL: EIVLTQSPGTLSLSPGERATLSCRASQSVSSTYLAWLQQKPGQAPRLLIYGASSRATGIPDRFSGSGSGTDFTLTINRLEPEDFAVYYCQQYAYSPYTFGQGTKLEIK"
unit = "nm"
quantitative_readout = 0.03

[[record]]
binder = "H4H2294S (antibody, human IgG4, V domains shown, human IgG4 Fc (H4H)) VH: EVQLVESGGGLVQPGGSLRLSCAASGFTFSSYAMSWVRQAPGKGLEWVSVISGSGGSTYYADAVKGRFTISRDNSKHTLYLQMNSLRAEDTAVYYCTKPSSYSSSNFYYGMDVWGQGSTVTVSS VL: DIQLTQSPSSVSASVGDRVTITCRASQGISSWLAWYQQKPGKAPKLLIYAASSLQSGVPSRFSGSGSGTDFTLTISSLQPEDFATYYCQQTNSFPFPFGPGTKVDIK"
unit = "nm"
quantitative_readout = 0.03

[[record]]
binder = "H4H2243N2 (antibody, human IgG4, V domains shown, human IgG4 Fc (H4H)) VH: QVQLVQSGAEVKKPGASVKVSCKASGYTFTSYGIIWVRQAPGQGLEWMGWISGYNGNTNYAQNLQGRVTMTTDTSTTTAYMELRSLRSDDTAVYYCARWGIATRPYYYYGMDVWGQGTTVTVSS VL: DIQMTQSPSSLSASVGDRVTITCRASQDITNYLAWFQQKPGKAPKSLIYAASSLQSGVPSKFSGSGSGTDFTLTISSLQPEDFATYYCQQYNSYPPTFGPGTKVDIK"
unit = "nm"
quantitative_readout = 0.03

[[record]]
binder = "H4H2292S (antibody, human IgG4, V domains shown, human IgG4 Fc (H4H)) VH: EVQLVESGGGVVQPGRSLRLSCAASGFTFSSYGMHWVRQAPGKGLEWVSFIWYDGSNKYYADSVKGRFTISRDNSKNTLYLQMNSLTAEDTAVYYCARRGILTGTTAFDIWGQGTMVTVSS VL: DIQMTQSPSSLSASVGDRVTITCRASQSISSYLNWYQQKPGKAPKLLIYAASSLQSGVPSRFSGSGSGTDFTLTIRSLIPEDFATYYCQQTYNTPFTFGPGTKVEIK"
unit = "nm"
quantitative_readout = 0.03


Moving on to another binder below.
The recorded Bound (nm) for entry H4H2342P (antibody, human IgG4, V domains shown, human IgG4 Fc (H4H)) VH: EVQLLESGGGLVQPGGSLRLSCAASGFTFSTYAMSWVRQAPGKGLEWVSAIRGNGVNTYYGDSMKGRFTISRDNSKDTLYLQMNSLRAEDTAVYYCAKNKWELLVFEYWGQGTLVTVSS VL: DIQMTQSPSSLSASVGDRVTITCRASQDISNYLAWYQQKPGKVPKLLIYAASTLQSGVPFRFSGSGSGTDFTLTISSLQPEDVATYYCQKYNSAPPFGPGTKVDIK equals 0.08
